Parameter: Hematocrit, HCT. Scope: all listed entries.
Tested on: ICR (CD-1) mice
Test: In vivo toxicity in mice (SC, IN, IP routes)
Details: IP, 3 doses (1hr, 12hr, 24hr); RN7-IN10, RN7-IN8 20 mg/kg; RN7-IN9, RN7-IN6 10 mg/kg; day 7; mean±SD, 4 mice
The answer consists of two parts: a number and, after it, its unit.

Take a look at these entries with their results.
What value of Hematocrit, HCT has been reported for the following substance? FLGGLIKWWPWRR-NH2 [RN7-IN6, hybrid peptide of ranalexin (residues 1-7) and indolicidin (residues 8-13)]
44.97±1.75%

What value of Hematocrit, HCT has been reported for the following substance? FLGGLIKWKWPWWPWRR-NH2 [RN7-IN10, hybrid peptide of ranalexin (residues 1-7) and indolicidin (residues 4-13)]
47.67±5.6%

What value of Hematocrit, HCT has been reported for the following substance? FLGGLIKKWPWWPWRR-NH2 [RN7-IN9, hybrid peptide of ranalexin (residues 1-7) and indolicidin (residues 5-13)]
41.42±5.25%

Now let's try a different one.
What value of Hematocrit, HCT has been reported for the following substance? FLGGLIKWPWWPWRR-NH2 [RN7-IN8, hybrid peptide of ranalexin (residues 1-7) and indolicidin (residues 6-13)]
42.73±1.66%
